molecular target: Tyrosine-protein kinase BTK (Homo sapiens) (UniProt Q06187); conditions: at 0.1 µM
Sequence (Q06187 whole entry): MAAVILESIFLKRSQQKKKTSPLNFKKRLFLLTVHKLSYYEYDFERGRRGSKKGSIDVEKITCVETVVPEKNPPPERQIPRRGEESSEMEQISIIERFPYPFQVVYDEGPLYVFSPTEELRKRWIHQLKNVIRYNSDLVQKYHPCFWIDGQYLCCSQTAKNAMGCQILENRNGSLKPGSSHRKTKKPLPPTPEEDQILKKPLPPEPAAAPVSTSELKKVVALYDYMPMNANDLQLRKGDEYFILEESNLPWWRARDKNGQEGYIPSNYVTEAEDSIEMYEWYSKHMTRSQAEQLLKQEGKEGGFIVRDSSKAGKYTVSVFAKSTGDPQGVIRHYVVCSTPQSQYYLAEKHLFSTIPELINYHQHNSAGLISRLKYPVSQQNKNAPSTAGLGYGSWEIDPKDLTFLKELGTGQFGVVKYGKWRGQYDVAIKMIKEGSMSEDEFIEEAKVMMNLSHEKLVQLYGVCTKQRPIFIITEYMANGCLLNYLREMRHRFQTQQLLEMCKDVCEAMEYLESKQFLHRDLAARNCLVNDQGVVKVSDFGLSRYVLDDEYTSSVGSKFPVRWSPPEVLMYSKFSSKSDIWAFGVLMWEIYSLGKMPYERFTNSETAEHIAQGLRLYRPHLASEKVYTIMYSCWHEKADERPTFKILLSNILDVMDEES
readout.kind: inhibition (%)
Report the figure in % without appending any unit label.

Could you share which inhibition value was measured for Cn1cc(C=C2C(=O)Nc3cccnc32)c2ccccc21 ?
1.87

Try the compound Cc1cccc(-c2n[nH]cc2-c2ccc3ncccc3n2)n1
-0.91

Try the compound COc1cc(C)c(NC(=O)CN(C)C)cc1Nc1nc(Nc2cccc(F)c2C(N)=O)c2cc[nH]c2n1
0.31

Try the compound CS(=O)(=O)CCN(CC#N)Cc1ccc(-c2ccc3ncnc(Nc4ccc(OCc5cccc(F)c5)c(Cl)c4)c3c2)o1
-4.96

Try the compound COc1ccc(-c2coc3ncnc(N)c23)cc1
0.04

Try the compound CC(=O)Nc1cccc(C#Cc2cncnc2Nc2ccc(OCc3cccc(F)c3)c(Cl)c2)n1
0.29

Try the compound O=C1Nc2ccc(C(=O)c3ccco3)cc2C1=Cc1cc(Cl)c(O)c(Cl)c1
1.4

Try the compound COc1cc2ncn(-c3cc(O[C@H](C)c4ccccc4Cl)c(C(N)=O)s3)c2cc1OC
1.78

====

molecular target: Serine/threonine-protein kinase PAK 2 (Homo sapiens) (UniProt Q13177); conditions: at 0.1 µM;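 note: values are mean percent inhibition of PAK2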
Sequence (Q13177 whole entry): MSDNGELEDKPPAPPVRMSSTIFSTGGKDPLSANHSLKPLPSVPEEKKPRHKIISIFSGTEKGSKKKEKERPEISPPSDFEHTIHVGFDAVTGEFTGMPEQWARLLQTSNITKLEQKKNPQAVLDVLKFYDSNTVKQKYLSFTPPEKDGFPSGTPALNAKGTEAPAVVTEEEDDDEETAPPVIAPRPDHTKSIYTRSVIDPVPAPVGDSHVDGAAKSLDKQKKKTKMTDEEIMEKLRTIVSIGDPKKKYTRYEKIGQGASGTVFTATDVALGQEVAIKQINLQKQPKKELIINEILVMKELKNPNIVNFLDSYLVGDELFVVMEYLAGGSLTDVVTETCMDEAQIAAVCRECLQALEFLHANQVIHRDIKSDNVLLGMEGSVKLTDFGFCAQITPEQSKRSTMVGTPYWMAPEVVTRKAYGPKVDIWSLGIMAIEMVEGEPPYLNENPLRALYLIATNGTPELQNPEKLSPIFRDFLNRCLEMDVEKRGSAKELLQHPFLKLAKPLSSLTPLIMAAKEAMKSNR
Below, each of the compounds is paired with its reported inhibition value.
Report the figure in % without appending any unit label.

Solved cases (5 shown):
                                   compound  units_text  quantitative_result
0               COc1ccc(-c2ccncc2)cc1C(N)=O           %                 2.37
1  COC(=O)Nc1nc2cc(Oc3ccc(NC(=O)Nc4cccc(C(=O)O)c4)cc3)ccc2[nH]1           %                -0.12
2       CCn1c(-c2nonc2N)nc2c(N3CCCC3)nccc21           %                -2.37
3  CS(=O)(=O)CCN(CC#N)Cc1ccc(-c2ccc3ncnc(Nc4ccc(OCc5cccc(F)c5)c(Cl)c4)c3c2)o1           %                 0.62
4  CCn1c(-c2nonc2N)nc2cncc(C(=O)N3CC[C@H](N)C3)c21           %                    1

Could you share which inhibition value was measured for Nc1nc(-c2ccc3c(c2)C(=Cc2cc(Br)c(O)c(Br)c2)C(=O)N3)cs1 ?
-2.22

Try the compound COc1ccccc1Nc1ncc(-c2ccccc2)o1
1.73

Try the compound CCCN1CCC=C(c2ccc(Nc3nc(Nc4ccccc4C(N)=O)c4cc[nH]c4n3)c(C)c2)C1
2.2

Try the compound CNC(=O)c1cncc(/C=C/c2c(Cl)cccc2Cl)c1
1.59

Try the compound COc1ccc(-c2nn3ncccc3c2-c2ccnc(Nc3ccc(Cl)c(C(F)(F)F)c3)n2)cc1
-0.08

Try the compound CS(=O)(=O)CCNCc1nc(-c2ccc3ncnc(Nc4ccc(F)c(Cl)c4)c3c2)cs1
1.56

Try the compound COc1cc(C)c(NC(=O)CN(C)C)cc1Nc1nc(Nc2cccc(F)c2C(N)=O)c2cc[nH]c2n1
1.54

Try the compound CC1=C(C(=O)Nc2ccc3[nH]ncc3c2)C(c2ccc(F)cc2)NC(=O)N1 (stereo not given)
-0.87

Try the compound Cc1nn(C)c2cc(N(C)c3ccnc(Nc4cccc(S(N)(=O)=O)c4)n3)ccc12
0.68

Try the compound O=C1NC(=O)C(N2CCc3ccccc32)=C1c1ccc(Cl)cc1
2.34

Try the compound CCn1c(-c2nonc2N)nc2cncc(C(=O)N3CCNCC3)c21
3.6

Try the compound COc1ccc(COc2ccc(Cc3cnc(N)nc3N)cc2OC)cc1
0.46

Try the compound Cc1ccc(NC(=O)c2ccnc(N3CCCC3)c2)cc1-c1ccc(C(=O)NCC2CC2)cc1
1.66

Try the compound CC1=C(C(=O)Nc2ccc3[nH]ncc3c2)C(c2ccc(Cl)c(Cl)c2)CC(=O)N1 (stereo not given)
0.48

Try the compound COc1cc2ncn(-c3cc(OCc4ccccc4Cl)c(C(N)=O)s3)c2cc1OC
-1.4

====

target: Tyrosine-protein kinase BTK (Homo sapiens); conditions: at 1 µM
readout.kind: inhibition (%)
Report the figure in % without appending any unit label.

                                   compound  units_text  quantitative_result
0  COc1cc(C)c(NC(=O)CN(C)C)cc1Nc1nc(Nc2cccc(F)c2C(N)=O)c2cc[nH]c2n1           %                 0.16

Now consider the entry below.
Could you share which inhibition value was measured for CS(=O)(=O)Nc1ccc(N/C=C2\C(=O)Nc3ccccc32)cc1 ?
-0.9

====

Below, each of the compounds is paired with its reported inhibition value.
molecular target: Inhibitor of nuclear factor kappa-B kinase subunit epsilon (Homo sapiens) (UniProt Q14164); settings: at 0.1 µM;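 note: mean inhibition of IKKε reported, from the GSK PKIS dataset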
Sequence (Q14164 whole entry): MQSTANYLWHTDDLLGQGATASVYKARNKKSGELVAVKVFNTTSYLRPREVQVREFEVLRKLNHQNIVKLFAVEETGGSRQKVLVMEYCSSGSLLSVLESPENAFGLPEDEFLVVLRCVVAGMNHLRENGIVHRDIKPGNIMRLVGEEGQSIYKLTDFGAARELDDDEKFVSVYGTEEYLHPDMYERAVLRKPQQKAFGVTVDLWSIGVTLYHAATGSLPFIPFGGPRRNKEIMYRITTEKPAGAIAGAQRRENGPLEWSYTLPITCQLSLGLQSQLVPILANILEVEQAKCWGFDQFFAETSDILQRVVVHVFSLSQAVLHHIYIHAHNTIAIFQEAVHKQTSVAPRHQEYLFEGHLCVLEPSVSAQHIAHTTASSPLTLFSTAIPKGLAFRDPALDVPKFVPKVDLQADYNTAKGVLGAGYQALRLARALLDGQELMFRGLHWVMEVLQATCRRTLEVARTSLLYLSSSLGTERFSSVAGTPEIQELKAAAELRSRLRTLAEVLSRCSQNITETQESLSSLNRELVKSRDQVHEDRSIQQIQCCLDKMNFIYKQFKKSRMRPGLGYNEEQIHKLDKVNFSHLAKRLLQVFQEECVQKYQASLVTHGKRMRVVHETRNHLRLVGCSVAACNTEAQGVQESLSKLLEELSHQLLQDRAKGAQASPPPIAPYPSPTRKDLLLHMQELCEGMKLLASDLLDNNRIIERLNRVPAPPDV
Report the figure in % without appending any unit label.

In [3]: df
Out[3]:
                                   compound  readout_kind  quantitative_result
0  NC(=O)c1cccc(Nc2nccc(Nc3cccc4[nH]ncc34)n2)c1    inhibition                -3.38
1      CNC(=O)c1cncc(/C=C/c2c(Cl)cccc2Cl)c1    inhibition                 5.94
2  O=C(Nc1n[nH]c2nc(-c3ccco3)c(Br)cc12)C1CC1    inhibition                 3.19
3    N#Cc1c(NC(=O)c2cccc3ccccc23)sc2c1CCCC2    inhibition                 4.91
4               COc1ccc(-c2ccncc2)cc1C(N)=O    inhibition                 5.87

Could you share which inhibition value was measured for COc1ccc(-c2coc3ncnc(N)c23)cc1 ?
5.67

Try the compound CCn1c(-c2nonc2N)nc2cncc(C(=O)N3CC[C@H](N)C3)c21
13.8

Try the compound CCN1CCC(CC(=O)Nc2n[nH]c3nc(-c4cccs4)c(Br)cc23)CC1
-5.79

====

biological target: Tyrosine-protein kinase BTK (Homo sapiens); settings: at 1 µM
readout.kind: inhibition (%)
Report the figure in % without appending any unit label.

Solved cases (4 shown):
>>> print(df.to_string())
                                   compound                              assay_system  readout_kind  quantitative_result
0  O=C1NC(=O)C(c2cccc(Cl)c2)=C1Nc1ccc(O)c(Cl)c1  Tyrosine-protein kinase BTK (Homo sapiens)    inhibition                 1.57
1  Cc1ccc(NC(=O)c2ccnc(N3CCCC3)c2)cc1-c1ccc(C(=O)NCC2CC2)cc1  Tyrosine-protein kinase BTK (Homo sapiens)    inhibition                -2.42
2   COc1ccc(COc2ccc(Cc3cnc(N)nc3N)cc2OC)cc1  Tyrosine-protein kinase BTK (Homo sapiens)    inhibition                 3.61
3  COc1cc2ncn(-c3cc(OCc4ccccc4Cl)c(C(N)=O)s3)c2cc1OC  Tyrosine-protein kinase BTK (Homo sapiens)    inhibition                 1.14

Now consider the entry below.
Could you share which inhibition value was measured for NCc1ccc(-c2nc(-c3ccc(Cl)c(O)c3)c(-c3ccncc3)[nH]2)cc1 ?
6.57

====

target: Serine/threonine-protein kinase MRCK beta (Homo sapiens); details: at 1 µM;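 note: averaged inhibition values against MRCK beta, part of the GSK PKIS profiling dataset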
Below, each of the compounds is paired with its reported inhibition value.
Report the figure in % without appending any unit label.

Solved cases (6 shown):
>>> print(df.to_string())
                                   compound  quantitative_result
0  O=C1NC(=O)C(c2ccc(Cl)cc2)=C1Nc1ccc(Cl)c(C(=O)O)c1                -0.42
1  CS(=O)(=O)CCNCc1ccc(-c2ccc3ncnc(Nc4ccc(OCc5cccc(F)c5)c(C(F)(F)F)c4)c3c2)o1                 0.67
2  CS(=O)(=O)CCNCc1ccc(-c2ccc3ncnc(Nc4ccc(OCc5ccccc5)c(Cl)c4)c3c2)o1                  0.8
3  NS(=O)(=O)c1ccc(N/N=C2\C(=O)Nc3ccc(C(=O)NCCc4c[nH]cn4)cc32)cc1                 2.13
4  COc1cc2ncn(-c3cc(OCc4ccccc4Cl)c(C(N)=O)s3)c2cc1OC                 1.67
5   COc1ccc(COc2ccc(Cc3cnc(N)nc3N)cc2OC)cc1                 3.93

Could you share which inhibition value was measured for CNC(=O)c1cncc(/C=C/c2c(Cl)cccc2Cl)c1 ?
0.52

Try the compound NC(=O)c1ccc(-c2nc(-c3ccccn3)c(-c3ccc4c(c3)OCO4)[nH]2)cc1
0.59

Try the compound COc1cc2c(cc1Nc1nc(N3CCc4ccccc43)c3cc[nH]c3n1)N(C(=O)CN(C)C)CC2
1.27

Try the compound CCCN1CCC(Oc2cc(Nc3nc(Nc4cccc(F)c4C(N)=O)c4cc[nH]c4n3)c(OC)cc2Cl)CC1
2.2

Try the compound COc1cc2ncn(-c3cc(OCc4ccccc4C(F)(F)F)c(C(N)=O)s3)c2cc1OC
-0.14

Try the compound CCN1CCC(CC(=O)Nc2n[nH]c3nc(-c4cccs4)c(Br)cc23)CC1
0.47

Try the compound Nc1nc(-c2ccc3c(c2)C(=Cc2cc(Br)c(O)c(Br)c2)C(=O)N3)cs1
0.83

Origin of measurements: ChEMBL document CHEMBL1961873
